Origin of measurements: ChEMBL document CHEMBL4806970

# methodNotes: Half life in C57BL/6 mouse at 2 mg/kg, iv measured up to 8 hrs post-dosing
# Format: ADME, organism-based
# conditionDescription: in vivo
observationType: half-life

# input Consider the molecule shown here: Cc1ncsc1-c1ccc([C@H](C)NC(=O)[C@@H]2C[C@@H](O)CN2C(=O)[C@@H](NC(=O)CCCCCCCCCCN2CCC[C@@H](Nc3ncc(Cl)c(Nc4ccccc4S(=O)(=O)C(C)C)n3)C2)C(C)(C)C)cc1 What is its recorded half-life?
# output 2.21 h
